Test: p53 stabilisation in HPV-positive human cells, imaging, p53-positive nuclei imaging, 24 h, 48 h (AID 1508601)
Settings: 24/48 h, measured here: cell number at 48 h, Library stock concentration: 3.33 mM
Out of some 5,700 compounds screened, about 85 (1%) were called active. The full list was thinned out, with actives kept by preference.
endpoint label: nuclei count, normalised

{"molecule": "CCCCCCCCCCCC[N+](C)(C)CCOc1ccccc1", "endpoint label": "nuclei count, normalised", "recorded value": "110%"}
{"molecule": "Cc1sc2c(c1C)C(c1ccc(Cl)cc1)=NC(CC(=O)OC(C)(C)C)c1nnc(C)n1-2 (configuration not stated)", "endpoint label": "nuclei count, normalised", "recorded value": "124%"}
{"molecule": "Cc1sc2c(c1C)C(c1ccc(Cl)cc1)=NC(CC(=O)Nc1ccc(O)cc1)c1nnc(C)n1-2 (configuration not stated)", "endpoint label": "nuclei count, normalised", "recorded value": "117%"}
{"molecule": "C[C@]12NC(Cc3ccccc31)c1ccccc12", "endpoint label": "nuclei count, normalised", "recorded value": "112%"}
{"molecule": "Cc1ccc(-n2nccn2)c(C(=O)N2CCN(c3nc4cc(Cl)ccc4o3)CCC2C)c1 (configuration not stated)", "endpoint label": "nuclei count, normalised", "recorded value": "76.4%"}
{"molecule": "O=c1[nH]c2ccc(Cl)cc2c(NC2CN3CCC2CC3)c1-c1nc2ccccc2[nH]1 (configuration not stated)", "endpoint label": "nuclei count, normalised", "recorded value": "33.7%"}
{"molecule": "CC=C(C)C(=O)NC(c1ccccc1)C(O)C(=O)OC1C[C@@]2(O)C(OC(=O)c3ccccc3)[C@@H]3[C@]4(OC(C)=O)COC4CC(O)[C@@]3(C)C(=O)C(OC(C)=O)C(=C1C)C2(C)C (some centres not stated)", "endpoint label": "nuclei count, normalised", "recorded value": "28.1%"}

---

Collected nuclei count, normalised values appear next to each entry.
Experiment: p53 stabilisation in HPV-positive human cells, imaging, p53-positive nuclei imaging, 24 h, 48 h (AID 1508601)
Conditions: 24/48 h, measured here: cell number at 24 h, Library stock concentration: 10 mM
Among all 5,700 compounds or so, about 85 (1%) were called active. The entries come from a sample that favours actives as a whole.
endpoint label: nuclei count, normalised (%)

{"compound": "NOCCC(N)C(=O)O (stereo unspecified)", "endpoint label": "nuclei count, normalised", "recorded value": 97.4}
{"compound": "CCn1cnc2c(Nc3cccc(Cl)c3)nc(NC3CCCCC3N)nc21 (stereo unspecified)", "endpoint label": "nuclei count, normalised", "recorded value": 32.2}
{"compound": "CC1OC(O[C@H]2CC[C@@]3(C)[C@@H](CC[C@@H]4[C@H]3CC[C@]3(C)[C@@H](C5=CC(=O)OC5)CC[C@]43O)C2)CC(O)C1O (stereo partly specified)", "endpoint label": "nuclei count, normalised", "recorded value": 42.7}
{"compound": "Cc1sc2c(c1C)C(c1ccc(Cl)cc1)=NC(CC(=O)Nc1ccc(O)cc1)c1nnc(C)n1-2 (stereo unspecified)", "endpoint label": "nuclei count, normalised", "recorded value": 114}
{"compound": "Cc1sc2c(c1C)C(c1ccc(Cl)cc1)=NC(CC(N)=O)c1nnc(C)n1-2 (stereo unspecified)", "endpoint label": "nuclei count, normalised", "recorded value": 90.1}
{"compound": "CC1=C(O)C(=O)C=C2C1=CC=C1[C@@]2(C)CCC2(C)C3C[C@](C)(C(=O)O)CC[C@]3(C)CC[C@]12C (stereo partly specified)", "endpoint label": "nuclei count, normalised", "recorded value": 46.3}
{"compound": "C[C@]12C=CC(=O)C=C1CC[C@@H]1[C@@H]2CC[C@]2(C)OC(=O)CC[C@@H]12", "endpoint label": "nuclei count, normalised", "recorded value": 89.5}
{"compound": "COc1ccc2c3c([nH]c2c1)C(CC(C)C)N1C(=O)C(CCC(=O)OC(C)(C)C)NC(=O)C1C3 (stereo unspecified)", "endpoint label": "nuclei count, normalised", "recorded value": 118}
{"compound": "NCCc1ccccc1Br", "endpoint label": "nuclei count, normalised", "recorded value": 98.5}
{"compound": "CN1CCC(C(=O)c2cccc(NC(=O)c3c(F)cc(F)cc3F)n2)CC1", "endpoint label": "nuclei count, normalised", "recorded value": 116}
{"compound": "CN1C(=O)[C@@]23C[C@]4([C@]56C[C@@]78SS[C@@](CO)(C(=O)N7[C@@H]5Nc5ccccc56)N(C)C8=O)c5ccccc5N[C@H]4N2C(=O)[C@]1(CO)SS3", "endpoint label": "nuclei count, normalised", "recorded value": 41.7}

---

# nuclei count, normalised values compiled below
Assay: p53 stabilisation in HPV-positive human cells, imaging, p53-positive nuclei imaging, 24 h, 48 h (AID 1508601)
Conditions: 24/48 h, measured here: cell number at 24 h, concentration not given here
The whole screen tested about 5,700 compounds, of which about 85 (1%) were called active. Shown is part of a subset that was picked to be rich in actives.
endpoint label: nuclei count, normalised (%)

{"smiles code": "C=C(C)[C@@H]1CCC(C)=C[C@H]1c1c(OC)cc(CCCCC)cc1OC", "recorded value": 107}
{"smiles code": "CN1CCC(N(C)CCC2CCOCC2)CC1", "recorded value": 102}
{"smiles code": "CCCCC/C=C\\C/C=C\\C/C=C\\C/C=C\\CCCC(=O)NC(CO)CO", "recorded value": 103}
{"smiles code": "CC[C@@]1(O)C[C@H](O[C@H]2C[C@H](N(C)C)[C@H](O)[C@H](C)O2)c2c(cc3c(c2O)C(=O)c2c(O)ccc(O)c2C3=O)[C@H]1C(=O)OC", "recorded value": 29.9}

---

Experiment: p53 stabilisation in HPV-positive human cells, imaging, p53-positive nuclei imaging, 24 h, 48 h (AID 1508601)
Settings: 24/48 h, measured here: cell number at 48 h, Library stock concentration: 370 uM
The campaign covered roughly 5,700 compounds. About 85 (1%) were called active. The sample holds actives, similar compounds and a random draw of the others, so the mix is not that of the screen.
This listing pairs molecules with measured nuclei count, normalised.
endpoint label: nuclei count, normalised (%)

{"molecule": "OC1CN2CCC(O)[C@H]2C(O)C1O (stereo not given in full)", "endpoint label": "nuclei count, normalised", "unit of measure": "%", "recorded value": 106}
{"molecule": "CC[n+]1c(-c2ccccc2)c2cc(N)ccc2c2ccc(N)cc21", "endpoint label": "nuclei count, normalised", "unit of measure": "%", "recorded value": 104}
{"molecule": "CC1OC(O[C@H]2CC[C@@]3(C)[C@@H](CC[C@@H]4[C@H]3CC[C@]3(C)[C@@H](C5=CC(=O)OC5)CC[C@]43O)C2)CC(O)C1O (stereo not given in full)", "endpoint label": "nuclei count, normalised", "unit of measure": "%", "recorded value": 27.4}
{"molecule": "CN1C(=O)[C@@]23C[C@]4([C@]56C[C@@]78SS[C@@](CO)(C(=O)N7[C@@H]5Nc5ccccc56)N(C)C8=O)c5ccccc5N[C@H]4N2C(=O)[C@]1(CO)SS3", "endpoint label": "nuclei count, normalised", "unit of measure": "%", "recorded value": 32.7}
{"molecule": "NOCCC(N)C(=O)O (stereo not given)", "endpoint label": "nuclei count, normalised", "unit of measure": "%", "recorded value": 114}

---

# nuclei count, normalised values compiled below
Assay: p53 stabilisation in HPV-positive human cells, imaging, p53-positive nuclei imaging, 24 h, 48 h (AID 1508601)
Conditions: 24/48 h, measured here: cell number at 24 h, concentration not given here
The whole screen tested about 5,700 compounds, of which about 85 (1%) were called active. The list comes from a sample in which actives are over-represented; it also holds close analogues and randomly drawn compounds.

{"compound": "CCCCC/C=C\\C/C=C\\C/C=C\\C/C=C\\CCCCOC(CO)CO", "nuclei count, normalised": "104%"}
{"compound": "O=c1c2cc(F)ccc2ncn1Cc1cn2ccccc2n1", "nuclei count, normalised": "98.7%"}
{"compound": "CCCCC/C=C\\C/C=C\\C/C=C\\C/C=C\\CCCC(=O)N[C@H](C)COP(=O)(O)O", "nuclei count, normalised": "107%"}
{"compound": "CC[C@@]1(O)C[C@H](O)c2c(cc3c(c2O)C(=O)c2c(O)ccc(O)c2C3=O)[C@H]1C(=O)OC", "nuclei count, normalised": "83.7%"}
{"compound": "c1cc(N2CCNCC2)c2cnccc2c1", "nuclei count, normalised": "95.9%"}
{"compound": "O=C1c2ccccc2C(=O)c2ccccc21", "nuclei count, normalised": "102%"}
{"compound": "CCCCC/C=C\\C/C=C\\C/C=C\\C/C=C\\CCCC(=O)Nc1cccc([N+](=O)[O-])c1", "nuclei count, normalised": "108%"}
{"compound": "CO[C@H]1[C@H](O)[C@@H](O[C@H]2CC[C@]3(C=O)C4CC[C@]5(C)[C@@H](C6=CC(=O)OC6)CC[C@]5(O)C4CC[C@@H]3C2)O[C@@H](C)[C@@H]1O (some centres undefined)", "nuclei count, normalised": "35.5%"}
{"compound": "CCCCC/C=C\\C/C=C\\C/C=C\\C/C=C\\CCCC(=O)N[C@@H](CO)C(=O)O", "nuclei count, normalised": "108%"}
